- TARGET ENTITY: Large T antigen (Simian virus 40)
- PROTOCOL: SV40 large T antigen inhibitors, biochemical (AID 1903)
- EXPERIMENTAL CONTEXT: SV40 large T antigen ATPase/helicase inhibition assay; at 20 µM; hits give high values
About 1,200 (0.39%) of roughly 310,000 compounds were called active. Not all results are given here. Potency and affinity values are given separately.
Listed next: entries and their corresponding inhibition.
Give the value in % but do not write % after it.

Recorded inhibition of COc1cccc(-c2ccc3nnc(SCC(=O)N4CCOCC4)n3n2)c1 , please.
8.56

More entries:
Recorded inhibition of O=C(NCC1CCCCC1)c1cccnc1 , please.
11.1

Same again, this time with C/C(CC(=O)NC1CCCCCC1)=N\NC(=O)c1cnccn1
0.37

Same again, this time with O=C(O)/C=C/c1cnn(-c2ccccc2)c1
6.6

Same again, this time with O=C(Nc1cccc(-c2nn[nH]n2)c1)c1ccc(Cl)s1
8.59
